- Target Or Test System: DPP-IV (Homo sapiens (Human))
- Sequence (P27487 whole entry): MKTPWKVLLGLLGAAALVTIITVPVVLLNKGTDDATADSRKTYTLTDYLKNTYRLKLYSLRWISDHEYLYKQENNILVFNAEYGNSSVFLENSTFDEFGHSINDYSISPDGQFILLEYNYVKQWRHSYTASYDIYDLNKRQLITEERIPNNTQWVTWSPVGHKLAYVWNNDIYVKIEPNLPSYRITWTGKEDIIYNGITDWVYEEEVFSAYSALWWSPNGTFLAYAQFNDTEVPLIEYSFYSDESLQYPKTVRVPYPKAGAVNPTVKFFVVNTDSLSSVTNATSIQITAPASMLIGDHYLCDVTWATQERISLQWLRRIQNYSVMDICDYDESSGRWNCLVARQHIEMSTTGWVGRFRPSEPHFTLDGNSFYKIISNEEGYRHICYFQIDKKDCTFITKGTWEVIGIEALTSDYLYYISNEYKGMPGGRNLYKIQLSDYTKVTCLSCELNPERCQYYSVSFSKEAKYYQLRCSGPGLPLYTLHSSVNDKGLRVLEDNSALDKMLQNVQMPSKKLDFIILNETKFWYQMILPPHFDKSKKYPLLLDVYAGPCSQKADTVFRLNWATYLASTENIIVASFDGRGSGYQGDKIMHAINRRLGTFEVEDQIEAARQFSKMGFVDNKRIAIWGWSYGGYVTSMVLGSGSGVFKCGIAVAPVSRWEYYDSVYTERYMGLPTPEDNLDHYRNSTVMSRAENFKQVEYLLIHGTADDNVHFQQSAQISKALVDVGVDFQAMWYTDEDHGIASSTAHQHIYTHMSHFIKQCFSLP
pIC50: −log10 of the molar value.
Parameter: pIC50

CC#CCn1c(N2CCCC(N)C2)nc2c1c(=O)n(Cc1nc(Nc3ccccc3)c3ccccc3n1)c(=O)n2C (stereo not drawn) | 8.22

[A] CC#CCn1c(N2CCC[C@@H](N)C2)nc2c1c(=O)n(CC(=O)c1cccc(OC3CC3)c1)c(=O)n2C
[B] CC#CCn1c(N2CCC[C@@H](N)C2)nc2c1c(=O)n(Cc1ccccc1C#N)c(=O)n2C
Q. Kindly identify the item with the lower pIC50 figure among these two: A and B Mark your selection by writing its label.
A. A
(A: 8.30, B: 8.70)
